- condition.label: buffer; pH 7.4; 200.0 µM
Would you please tag the item MET when its solubility kinetic is 10 µg/mL or above, and NOT MET when it is below?

                        compound  label_value
0  S=C(NCCc1cccc(Cl)c1)NC1CCCCC1          MET

input: hey, is solubility kinetic for this one >= 10 µg/mL? OC1CCN(CC(O)C(F)(F)F)CC1 (stereo not given)
output: MET

input: hey, is solubility kinetic for this one >= 10 µg/mL? O=[N+]([O-])c1ccc(-c2nc(C(Cl)Cl)c3ccccc3n2)cc1
output: NOT MET

input: hey, is solubility kinetic for this one >= 10 µg/mL? COc1cccc(NC(=O)CN2C(=O)NC(C)(C3CC3)C2=O)c1 (stereo not given)
output: MET

input: hey, is solubility kinetic for this one >= 10 µg/mL? COc1cc(NC(=O)C2CC3CCC2C3)c(OC)cc1Cl (stereo not given)
output: NOT MET

input: hey, is solubility kinetic for this one >= 10 µg/mL? Cc1nnc(Nc2ccc(C(=O)O)cc2)[nH]c1=O
output: MET

input: hey, is solubility kinetic for this one >= 10 µg/mL? C=CCc1ccccc1Oc1cc(OC)nc(N)n1
output: MET

input: hey, is solubility kinetic for this one >= 10 µg/mL? CC(NC(=O)COC(=O)c1ccc(N2CCCC2=O)cc1)c1ccc(F)cc1 (stereo not given)
output: NOT MET

input: hey, is solubility kinetic for this one >= 10 µg/mL? O=C(Nc1cccc2c1CCCC2)c1ccccc1Cl
output: NOT MET
